assay: Peptide stability in simulated gastric fluid (SGF); assay type: in vitro ADME; settings: pig, 1 h, pH 1.2, pepsin, 37° C.
*1 amine or outer side, *2 acyl side, *3 side chain or, on linkers, in order; H or OH if unused. Where a SMILES comes first, the peptide text is derived from it. Bridges are numbered along the chain shown (N, C = ends). [ ]: non-standard residue; d: D form. 2Nal = N[C@@H](Cc1ccc2ccccc2c1)C(=O)O; AEF = NCCOc1ccc(C[C@H](N)C(=O)O)cc1; X1 = O=C(Cc1ccc(CN[*:1])cc1)[*:2]; 3Pal = N[C@@H](Cc1cccnc1)C(=O)O; Cit = NC(=O)NCCC[C@H](N)C(=O)O; αMeL = CC(C)C[C@](C)(N)C(=O)O; Dab = NCC[C@H](N)C(=O)O
MEASUREMENT TYPE: remaining at 1 h, 10 µM (%)
Answers are plain numbers, in %.

Record excerpt, results attached:
CNC(=O)[C@H](Cc1cccnc1)NC(=O)[C@H](CCN)NC(=O)[C@@H]1CCC(=O)NCc2ccc(cc2)CC(=O)N[C@@H](CO)C(=O)N[C@H]2CCC(=O)NCC[C@H](NC(=O)[C@H](CCC(=O)N(C)C)NC(=O)[C@H](Cc3c[nH]c4ccccc34)NC2=O)C(=O)N[C@@H](Cc2ccc(OCCN)cc2)C(=O)N[C@@H](Cc2ccc3ccccc3c2)C(=O)N[C@@](C)(CC(C)C)C(=O)N1 [Compound 30] ([X1]SEWE(NMe2)[Dab][AEF][2Nal][αMeL]E[Dab][3Pal]-NHMe; lactam 3-6, N-10): 92
CNC(=O)[C@H](Cc1cccnc1)NC(=O)[C@H](CCN)NC(=O)[C@@H]1CCC(=O)NCc2ccc(cc2)CC(=O)N[C@@H](CO)C(=O)N[C@H]2CCC(=O)NCC[C@H](NC(=O)[C@H](CCCNC(N)=O)NC(=O)[C@H](Cc3c[nH]c4ccccc34)NC2=O)C(=O)N[C@@H](Cc2ccc(OCCN)cc2)C(=O)N[C@@H](Cc2ccc3ccccc3c2)C(=O)N[C@@](C)(CC(C)C)C(=O)N1 [Compound 26] ([X1]SEW[Cit][Dab][AEF][2Nal][αMeL]E[Dab][3Pal]-NHMe; lactam 3-6, N-10): 105
CNC(=O)CC[C@@H]1NC(=O)[C@H](Cc2c[nH]c3ccccc23)NC(=O)[C@@H]2CCC(=O)NCC[C@H](NC1=O)C(=O)N[C@@H](Cc1ccc(OCCN)cc1)C(=O)N[C@@H](Cc1ccc3ccccc3c1)C(=O)N[C@@](C)(CC(C)C)C(=O)N[C@H](C(=O)N[C@@H](CCN)C(=O)N[C@@H](Cc1cccnc1)C(=O)NC)CCC(=O)NCc1ccc(cc1)CC(=O)N[C@@H](CO)C(=O)N2 [Compound 29] ([X1]SEWE(NHMe)[Dab][AEF][2Nal][αMeL]E[Dab][3Pal]-NHMe; lactam 3-6, N-10): 94

Provide remaining at 1 h, 10 µM for all items below, preserving their order.
1. CNC(=O)[C@H](Cc1cccnc1)NC(=O)[C@H](CO)NC(=O)[C@@H]1CCC(=O)NCc2ccc(cc2)CC(=O)N[C@@H](CO)C(=O)N[C@H]2CCC(=O)NCC[C@H](NC(=O)[C@H](CCC(N)=O)NC(=O)[C@H](Cc3c[nH]c4ccccc34)NC2=O)C(=O)N[C@@H](Cc2ccc(OCCN)cc2)C(=O)N[C@@H](Cc2ccc3ccccc3c2)C(=O)N[C@@](C)(CC(C)C)C(=O)N1 [Compound 31] ([X1]SEWQ[Dab][AEF][2Nal][αMeL]ES[3Pal]-NHMe; lactam 3-6, N-10)
2. CNC(=O)[C@H](Cc1cccnc1)NC(=O)[C@H](CCC(N)=O)NC(=O)[C@@H]1CCC(=O)NCc2ccc(cc2)CC(=O)N[C@@H](CO)C(=O)N[C@H]2CCC(=O)NCC[C@H](NC(=O)[C@H](CCC(N)=O)NC(=O)[C@H](Cc3c[nH]c4ccccc34)NC2=O)C(=O)N[C@@H](Cc2ccc(OCCN)cc2)C(=O)N[C@@H](Cc2ccc3ccccc3c2)C(=O)N[C@@](C)(CC(C)C)C(=O)N1 [Compound 33] ([X1]SEWQ[Dab][AEF][2Nal][αMeL]EQ[3Pal]-NHMe; lactam 3-6, N-10)
3. CC(C)C[C@@H]1NC(=O)[C@H](Cc2c[nH]c3ccccc23)NC(=O)[C@H](Cc2c[nH]c3ccccc23)NC(=O)[C@@H]2CSCC(=O)CSC[C@H](NC(=O)[C@H]([C@@H](C)O)NC(=O)[C@@H](NC(=O)CN)CSCC(=O)CSC[C@@H](C(=O)N[C@@H](CO)C(N)=O)NC1=O)C(=O)N[C@@H](Cc1c[nH]c3ccccc13)C(=O)N[C@@H](CCC(=O)O)C(=O)N2 (single isomer, unassigned) [I1 (isomer 3), H-GC(1a)TC(2a)WEC(2a)WWLC(1a)S-[NH2], reference compound]

## Result
101
98
92

Cited source: patent US20260327264A1
